TARGET_SYSTEM: T1, RBFOX1 RRM (Homo sapiens, UniProt Q9NWB1 109-208)
T1 sequence: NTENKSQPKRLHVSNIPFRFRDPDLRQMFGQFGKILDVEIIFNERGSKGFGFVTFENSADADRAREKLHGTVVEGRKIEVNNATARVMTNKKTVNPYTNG
TEST: EMSA; HiTS-Eq, 1 nM pool, 10 min; buffer printed only for the single-RNA assays: 10 mM Tris pH 7.5, 150 mM NaCl, 3.4 mM EDTA, 0.001% NP-40, 30 C
SETUP_CONDITIONS: tags: His6 N-terminal (pET28a); label: 5' 32P
The full ranking holds about 16,000 sequences; the median of “ka relative to ugcaugu” is about 0.0091, and the highest 2% start at about 0.032. The full list was thinned out, with the highest values kept by preference.
// reported binding signal per item

Answered cases to consult:
For this binder ( UUGCACU (DNA:RNA) RNA: GGGAGACCGGAAUUCAGAUUGUCCUUGCACUUUAAAUCCCGUCGUAGCCACCA DNA 1: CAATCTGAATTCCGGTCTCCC DNA 2: TGGTGGCTACGACGGGATT ), measured binding signal is 0.021 KA relative to UGCAUGU

For this binder ( UGAGAAC (DNA:RNA) RNA: GGGAGACCGGAAUUCAGAUUGUCCUGAGAACUUAAAUCCCGUCGUAGCCACCA DNA 1: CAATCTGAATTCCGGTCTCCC DNA 2: TGGTGGCTACGACGGGATT ), measured binding signal is 0.0124 KA relative to UGCAUGU

For this binder ( AGCCAUG (DNA:RNA) RNA: GGGAGACCGGAAUUCAGAUUGUCCAGCCAUGUUAAAUCCCGUCGUAGCCACCA DNA 1: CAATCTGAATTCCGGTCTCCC DNA 2: TGGTGGCTACGACGGGATT ), measured binding signal is 0.0102 KA relative to UGCAUGU

Others:
For this binder ( UCGCCUU (DNA:RNA) RNA: GGGAGACCGGAAUUCAGAUUGUCCUCGCCUUUUAAAUCCCGUCGUAGCCACCA DNA 1: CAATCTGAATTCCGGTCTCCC DNA 2: TGGTGGCTACGACGGGATT ), measured binding signal is 0.0126 KA relative to UGCAUGU
